Experiment: Half-life of polypeptides in plasma at 37° C. (HPLC)
Format: in vitro ADME
Settings: 800 μg/ml, 20 μl injected on HPLC
No end group written: not given here.
assayEndpoint: half-life (min)
// return numeric value only (unit: min, not printed)

Query: half-life; subject: RGDGGGGIVRRADRAAVP [P1]
7
